Data credit: paper PMC3396687

# System: Human foreskin fibroblasts (HFF) cells
# Procedure Text: Toxicity against primary cultures of human cells (LIVE/DEAD)
# Settings: HFF cells, 72 hr exposure, LIVE/DEAD kit; > means no toxicity at the tested concentration; two independent assays in triplicates
Where no end group is shown, it is not given here.
Result Type: Toxicity

# Record Sequence, Toxicity
measured = [
    ("FLHSAKKF [PH(SCAP*)4]", ">500 µM"),
    ("GKFLHSAKKFGK [PH(SCAP*)6]", ">500 µM"),
    ("GKFLHSAK [PH(SCAP*)2]", ">500 µM"),
    ("KWKLFKKI [PH(SCAP*)1]", ">460 µM"),
    ("HSAKKFGK [PH(SCAP*)5]", ">500 µM"),
]

Given the entry KFLHSAKK [PH(SCAP*)3] , report its measured Toxicity.
>500 µM
